system: Porphyromonas gingivalis (ATCC strain 33277); assay: Minimum inhibitory concentration (MIC) against Porphyromonas gingivalis, 2-fold serial dilution in Minimal Medium+, visual scoring; type: cell-based; settings: P. gingivalis ATCC 33277, Minimal Medium+, overnight at 35° C., anaerobic chamber
Each record here notes measured MIC (P. gingivalis).

COMPOUND: C=C(C)[C@H](CC=C(C)C)Cc1c(O)cc(O)c2c1O[C@H](c1ccc(O)cc1O)CC2=O
MIC (P. gingivalis) / ppm: 12.5
//
COMPOUND: CC(C)=CCc1cc(C(=O)/C=C/c2ccc(O)cc2)c(O)cc1O
MIC (P. gingivalis) / ppm: 12.5
//
COMPOUND: CC(C)=CCC/C(C)=C/Cc1cc(-c2coc3cc(O)ccc3c2=O)ccc1O
MIC (P. gingivalis) / ppm: 15.625
//
COMPOUND: CC(C)=CCc1cc([C@@H]2CC(=O)c3ccc(O)c(CC=C(C)C)c3O2)cc(CC=C(C)C)c1O [(−)-Sophoranone]
MIC (P. gingivalis) / ppm: 50

###

Each record here notes measured MIC (P. gingivalis).
system: Porphyromonas gingivalis (ATCC strain 33277); test: Minimum inhibitory concentration (MIC) against Porphyromonas gingivalis, 2-fold serial dilution in Minimal Medium+, visual scoring; type: cell-based; conditions: P. gingivalis ATCC 33277, Minimal Medium+, overnight at 35° C., anaerobic chamber
REPORTED_ENDPOINT: MIC (P. gingivalis) (ppm)

MOLECULAR_STRING: CC(C)=CCc1c(-c2ccc(O)cc2O)oc2c(CC=C(C)C)c(O)cc(O)c2c1=O
REPORTED_ENDPOINT: MIC (P. gingivalis)
READOUT_NUMBER: 7.8125
//
MOLECULAR_STRING: CC(C)=CCc1c(-c2ccc(O)cc2O)oc2c([C@H]3C=C(C)C[C@@H](c4ccc(O)cc4O)[C@@H]3C(=O)c3ccc(O)cc3O)c(O)cc(O)c2c1=O
REPORTED_ENDPOINT: MIC (P. gingivalis)
READOUT_NUMBER: 125
//
MOLECULAR_STRING: COc1cc(O)c(C(=O)[C@@H]2[C@H](CC=C(C)C)C(C)=CC[C@H]2c2ccccc2)c(O)c1
REPORTED_ENDPOINT: MIC (P. gingivalis)
READOUT_NUMBER: 0.488

###

tested on: Porphyromonas gingivalis (ATCC strain 33277); assay: Minimum inhibitory concentration (MIC) against Porphyromonas gingivalis, 2-fold serial dilution in Minimal Medium+, visual scoring; format: cell-based; conditions: Porphyromonas gingivalis, ATCC33277; P. gingivalis ATCC 33277, Minimal Medium+, overnight at 35° C., anaerobic chamber
Each record here notes measured MIC.

MOLECULAR_STRING: COc1ccc(-c2oc3c(CC=C(C)C)c(O)cc(O)c3c(=O)c2O)cc1
QUALIFIER: >
MIC (µg/mL): 500

MOLECULAR_STRING: CC(C)=CCc1cc2c(cc1O)O[C@H](c1ccc(O)cc1)CC2=O
QUALIFIER: =
MIC (µg/mL): 31.2

MOLECULAR_STRING: CC(C)=CCc1cc(-c2coc3cc(O)ccc3c2=O)ccc1O
QUALIFIER: =
MIC (µg/mL): 31.2

###

Each record here notes measured MIC.
test system: Porphyromonas gingivalis (ATCC strain 33277); test: Minimum inhibitory concentration (MIC) against Porphyromonas gingivalis, 2-fold serial dilution in Minimal Medium+, visual scoring; type: cell-based; settings: Porphyromonas gingivalis, ATCC33277; P. gingivalis ATCC 33277, Minimal Medium+, overnight at 35° C., anaerobic chamber

COMPOUND: COc1ccc(-c2oc3c(CC=C(C)C)c(O[C@@H]4O[C@H](CO)[C@@H](O)[C@H](O)[C@H]4O)cc(O)c3c(=O)c2O[C@@H]2O[C@@H](C)[C@H](O)[C@@H](O)[C@H]2O)cc1
MEASUREMENT_TARGET: Porphyromonas gingivalis (ATCC strain 33277)
UNIT_TEXT: µg/mL
MIC: 50

COMPOUND: C=C(C)[C@H](CC=C(C)C)Cc1c(O)cc(OC)c2c1O[C@H](c1ccc(O)cc1O)CC2=O
MEASUREMENT_TARGET: Porphyromonas gingivalis (ATCC strain 33277)
UNIT_TEXT: µg/mL
MIC: 15.6

COMPOUND: COc1cc(O)c(CC=C(C)C)c2c1C(=O)CC(c1ccc(O)cc1)O2 (stereo not shown)
MEASUREMENT_TARGET: Porphyromonas gingivalis (ATCC strain 33277)
UNIT_TEXT: µg/mL
MIC: 25

COMPOUND: CC(C)=CCc1c(O)ccc(C(=O)/C=C/c2ccc(O)cc2)c1O
MEASUREMENT_TARGET: Porphyromonas gingivalis (ATCC strain 33277)
UNIT_TEXT: µg/mL
MIC: 12.5

COMPOUND: CC(C)=CCc1c(O)cc(O)c2c1O[C@H](c1ccc(O)cc1)CC2=O
MEASUREMENT_TARGET: Porphyromonas gingivalis (ATCC strain 33277)
UNIT_TEXT: µg/mL
MIC: 50

COMPOUND: CC(C)=CCc1c(O)cc2c(c1O)C(=O)C[C@@H](c1ccc(O)cc1)O2
MEASUREMENT_TARGET: Porphyromonas gingivalis (ATCC strain 33277)
UNIT_TEXT: µg/mL
MIC: 25

COMPOUND: COc1cc(O)c(CC=C(C)C)c(O)c1C(=O)/C=C/c1ccc(O)cc1
MEASUREMENT_TARGET: Porphyromonas gingivalis (ATCC strain 33277)
UNIT_TEXT: µg/mL
MIC: 12.5

Every entry's value here was drawn from patent US20220096364A1.
